Test system: L1210 leukemia ip in BDF1 mice, survival T/C
PROCEDURE_SUMMARY: NCI In Vivo Anticancer Drug Screen. Data for tumor model L1210 Leukemia (intraperitoneal) in B6D2F1 (BDF1) mice
MEASUREMENT_PARAMETERS: endpoint: mean survival time; dose: 100.0 mg/kg/injection; schedule: Q04DX003 (ip); vehicle: saline with Tween-80; higher = longer survival
Toxic doses and inconclusive results are not listed.
Quick reference for T/C among some molecules
METRIC: T/C

In [3]: df
Out[3]:
                                    molecule    recorded_value
 0  O=C1OC(=O)C2C3CC(C4OC34)C12 (configuration not stated)   95 % of control
 1                COc1ccc(/C(C)=C\C(=O)O)cc1  107 % of control
 2                 CCn1nnc2c(=O)[nH]c(N)nc21  105 % of control
 3                 CCn1c(N)c(N)c(=O)[nH]c1=S   86 % of control
 4                  COC(=O)c1ccccc1NC(=O)CCl   99 % of control
 5  COC(=O)C(CSCSC)NC(=O)Nc1ccc(F)cc1 (configuration not stated)   95 % of control
 6  CCC(C(O)c1ccc(F)cc1)C(O)(C(F)(F)F)C(F)(F)F (configuration not stated)  101 % of control
 7                          CCOc1ccc(OCC)cc1  101 % of control
 8                       O=C(/C=N/O)c1cccnc1   97 % of control
 9     Cc1ccc(Cl)cc1NC(=O)Nc1cccc2c(O)cccc12   88 % of control
10    CC1(C)N=C(N)N=C(N)N1NC(=O)c1ccc(Cl)cc1  100 % of control
11  COc1cc(C)c(O)c(C[P+](c2ccccc2)(c2ccccc2)c2ccccc2)c1   91 % of control
12         CC1(C)CC(N=Cc2ccccc2O)CC(C)(C)N1O   94 % of control
13          Cc1ccccc1C1(O)c2ccccc2-c2ccccc21   98 % of control
14  CCC1C/C(=C\NC(N)=O)C(=O)O1 (configuration not stated)   96 % of control
15  CC1(C)C2CC=C(N3CCCCC3)C1C2 (configuration not stated)   96 % of control
16  COc1ccccc1-n1c(O)c(N=Nc2ccccc2)c(=O)n(-c2ccc(Br)cc2)c1=S  106 % of control

###

Quick reference for T/C among some molecules
Test system: L1210 leukemia ip in BDF1 mice, survival T/C
PROCEDURE_SUMMARY: NCI In Vivo Anticancer Drug Screen. Data for tumor model L1210 Leukemia (intraperitoneal) in B6D2F1 (BDF1) mice
MEASUREMENT_PARAMETERS: endpoint: mean survival time; dose: 50.0 mg/kg/injection; schedule: Q01DX001 (ip); vehicle: saline; higher = longer survival
Inconclusive results and toxic doses are left out.
METRIC: T/C

>>> print(df.to_string())
                                    molecule    recorded_value
 0                 Nc1nnc2c(n1)[nH]c1ccccc12   96 % of control
 1  Nc1nc(CCCCc2ccc(NC(=O)CBr)cc2)c(CCCCc2ccccc2)c(=O)[nH]1  108 % of control
 2                    CCOC(=O)c1cc(OC)c[nH]1  100 % of control
 3                          CN(C)CCCN1CCCCC1  106 % of control
 4           CCC1CCCC1=O (centres undefined)   95 % of control
 5  Cc1ccc(N2C(=O)ON(c3ccccc3)C2c2ccccc2)cc1 (centres undefined)  100 % of control
 6                COc1cc(/C(C)=N\N(C)C)ccc1O  100 % of control
 7  CC(=O)OCC1OC(n2cnc(N)c2C#N)C(OC(C)=O)C1OC(C)=O (centres undefined)   98 % of control
 8  O=c1cc(Cc2ccc([N+](=O)[O-])cc2)[nH]c(=O)[nH]1  101 % of control
 9  COc1ccc(CN2CCCN(Cc3ccc(OC)cc3OC)C2c2cccc(F)c2)c(OC)c1   89 % of control
10  S=c1nc[nH]c2c1ncn2C1OC(COCc2ccccc2)C(OCc2ccccc2)C1OCc1ccccc1 (centres undefined)   93 % of control
11  O=C(Nc1ccc(S(=O)(=O)O)cc1)c1ccc([N+](=O)[O-])cc1   92 % of control
12  O=C(CNC(=O)OCc1ccccc1)Nc1ccc(S(=O)(=O)c2ccc(NC(=O)CNC(=O)OCc3ccccc3)cc2)cc1   96 % of control
13  CC(CN(C)C)C(O)(c1ccccc1)c1ccccc1 (centres undefined)   98 % of control
14                O=C(O)c1c2ccccc2nc2ccccc12  102 % of control
15             CN/N=C/c1cc(=O)[nH]c(=O)[nH]1  101 % of control
16         CN(C)C1(C(=O)O)c2ccccc2-c2ccccc21  100 % of control
17    O=C1NC(C(=O)O)CC1O (centres undefined)  100 % of control
18      O=C(O)C(=O)Cc1c(Cl)cccc1[N+](=O)[O-]  104 % of control
